Test: Volume of distribution at steady state in Beagle dog at 2 mg/kg,iv measured upto 24 hrs
Format: ADME, organism-based, Canis lupus familiaris
Conditions: in vivo, read-out: Vdss
Value type: Vd (L/kg)
Quick reminder: number only, in L/kg, skip the unit.

What does the data say about its Vd? Entry: `CC(=O)O[C@@]12CO[C@@H]1C[C@H](O)[C@@]1(C)C(=O)[C@H](O)C3=C(C)[C@@H](OC(=O)[C@H](OC(=O)CCC(=O)NCCCC[C@H](NC(=O)CC[C@@H](NC(=O)[C@H](C)NC(=O)/C=C/c4ccc(F)cc4Cl)C(N)=O)C(=O)O)[C@@H](NC(=O)OC(C)(C)C)c4ccccc4)C[C@@](O)([C@@H](OC(=O)c4ccccc4)[C@H]21)C3(C)C`
0.083

====

Experiment: Cmax in mouse plasma implanted with mouse 4T1 cells at 10 mg/kg,iv measured upto 72 hrs
Format: ADME, organism-based
Set-up: dose 10 mg/kg, time < 72 hrs, route iv
Value type: Cmax (µM)
Quick reminder: number only, in µM, skip the unit.

What does the data say about its Cmax? Entry: `CC(=O)O[C@@]12CO[C@@H]1C[C@H](O)[C@@]1(C)C(=O)[C@H](O)C3=C(C)[C@@H](OC(=O)[C@H](OC(=O)CCC(=O)NCCCC[C@H](NC(=O)CC[C@@H](NC(=O)[C@H](C)NC(=O)/C=C/c4ccc(F)cc4Cl)C(N)=O)C(=O)O)[C@@H](NC(=O)OC(C)(C)C)c4ccccc4)C[C@@](O)([C@@H](OC(=O)c4ccccc4)[C@H]21)C3(C)C`
14.7

====

Assay: Tmax in female rat at 2 mg/kg,iv measured upto 24 hrs
Format: ADME, organism-based
Details: in vivo
Value type: Tmax (min)
Quick reminder: number only, in min, skip the unit.

What does the data say about its Tmax? Entry: `CC(=O)O[C@@]12CO[C@@H]1C[C@H](O)[C@@]1(C)C(=O)[C@H](O)C3=C(C)[C@@H](OC(=O)[C@H](OC(=O)CCC(=O)NCCCC[C@H](NC(=O)CC[C@@H](NC(=O)[C@H](C)NC(=O)/C=C/c4ccc(F)cc4Cl)C(N)=O)C(=O)O)[C@@H](NC(=O)OC(C)(C)C)c4ccccc4)C[C@@](O)([C@@H](OC(=O)c4ccccc4)[C@H]21)C3(C)C`
4.98

====

Test: Volume of distribution at steady state in Beagle dog at 1 mg/kg,iv measured upto 24 hrs
Format: ADME, organism-based, Canis lupus familiaris
Settings: in vivo, read-out: Vdss
Value type: Vd (L/kg)
Quick reminder: number only, in L/kg, skip the unit.

What does the data say about its Vd? Entry: `CC(=O)O[C@@]12CO[C@@H]1C[C@H](O)[C@@]1(C)C(=O)[C@H](O)C3=C(C)[C@@H](OC(=O)[C@H](OC(=O)CCC(=O)NCCCC[C@H](NC(=O)CC[C@@H](NC(=O)[C@H](C)NC(=O)/C=C/c4ccc(F)cc4Cl)C(N)=O)C(=O)O)[C@@H](NC(=O)OC(C)(C)C)c4ccccc4)C[C@@](O)([C@@H](OC(=O)c4ccccc4)[C@H]21)C3(C)C`
0.169

====

Test: Tmax in rat at 8 mg/kg,iv measured upto 24 hrs
Assay type: ADME, organism-based
Conditions: in vivo
Value type: Tmax (min)
Quick reminder: number only, in min, skip the unit.

What does the data say about its Tmax? Entry: `CC(=O)O[C@@]12CO[C@@H]1C[C@H](O)[C@@]1(C)C(=O)[C@H](O)C3=C(C)[C@@H](OC(=O)[C@H](OC(=O)CCC(=O)NCCCC[C@H](NC(=O)CC[C@@H](NC(=O)[C@H](C)NC(=O)/C=C/c4ccc(F)cc4Cl)C(N)=O)C(=O)O)[C@@H](NC(=O)OC(C)(C)C)c4ccccc4)C[C@@](O)([C@@H](OC(=O)c4ccccc4)[C@H]21)C3(C)C`
4.98
